Data provenance: ChEMBL document CHEMBL1201862

System: BT-549
Assay: NCI tumour cell line growth inhibition, 48 h
Activity calls are given as the source filed them. Rule as the data show it: active = GI50 up to about 1.1 µM and inactive = higher.
Use one of these outcomes when replying: active, inactive

Status in this test for `O=C(O)CCCn1nnc2c(=O)[nH][nH]c(=O)c21` ?
inactive

Another: Cc1c(N2C(=O)C(Cl)C2c2ccc(Cl)cc2)c(=O)n(-c2ccccc2)n1C (configuration not stated)
inactive

Another: `C=CCN1CCC2(CC1)NC(=O)c1ccccc1O2`
inactive

Another: `O=C(O)c1ccc(NNc2cc(=O)[nH]c(=O)[nH]2)cc1`
inactive

Another: CC(=O)OC(CN1CCN(c2ccccn2)CC1)Cn1sc2nc(C)cc(C)c2c1=O (configuration not stated)
inactive

Another: `CO/C(=N\N=C\c1ccc(OC)c(OC)c1)c1ccncc1`
inactive

Another: `COc1cc(Cc2nccc3cc(OC)c(OC)cc23)c(C(C)=O)cc1OC`
inactive

Another: O=C(c1ccco1)C1CC(c2ccc3ccccc3c2O)=NN1c1ccc([N+](=O)[O-])cc1[N+](=O)[O-] (configuration not stated)
inactive

Another: `[N-]=[N+]=CC(=O)OCC1SCCCS1`
inactive

Another: CCCCCCOC(=O)C(N)Cc1ccc(OC)cc1 (configuration not stated)
inactive

Another: `N=C(N)N/N=C/c1c(-c2ccc(Cl)cc2)nc2sc(Cl)cn12`
inactive

Another: `O=C(CCc1cc(O)cc(O)c1)NCCc1ccc(O)c(O)c1`
inactive

Another: NC1=NCN(C2OC(CO)C(O)C2O)C(=O)N1 (configuration not stated)
inactive

Another: `CN1CCN(C(=S)N(C(=O)c2ccc(Cl)cc2)c2ccccc2)CC1`
inactive

Another: COc1ccc(C(C)NNC(=O)c2cc[n+]([BH2-]C#N)cc2)cc1OC (configuration not stated)
inactive

Another: Oc1ccc(Cl)cc1C1=NC(NCNC2=NC(c3ccccc3)CC(c3cc(Cl)ccc3O)=N2)=NC(c2ccccc2)C1 (configuration not stated)
inactive

Another: `C=CCON(C(=O)OC(C)(C)C)C(C)(C)C`
inactive

Another: CC(=O)CC1=C(OC(C)C)C2(OCCO2)C1O (configuration not stated)
inactive

Another: Cc1ccc(C2SCC(=O)N2c2ccc(-c3ccc(-n4c(-c5ccccc5)nc5ccccc5c4=O)cc3)cc2)cc1 (configuration not stated)
inactive

Another: CN1C(=O)CC2(C)c3cc(O)ccc3N(C)C12 (configuration not stated)
inactive

Another: `CCOC(=O)c1c(O)nc(O)c(CC)c1C`
inactive

Another: CCCCCCCCCCCCCCCCCCNc1ccn(C2OC(COP(=O)(O)OCC3OC(n4cc(F)c(=O)[nH]c4=O)CC3O)C(O)C2O)c(=O)n1 (configuration not stated)
inactive

Another: COc1ccc(CC2CCc3nc(N)nc(N)c3C2)cc1OC (configuration not stated)
active

Another: `Nc1nc(N)nc(-c2cnccn2)n1`
inactive

Another: `CC(=O)N(C)c1ccc(/N=C/N(C)C)cc1`
inactive

Another: `COc1ccc(OC/C(N)=N/NC(=O)c2ccncc2)cc1`
inactive

Another: `CO/[N+]([O-])=C\C(=O)N/C=C/C(=O)O`
inactive

###

Tested on: SF-268
Test: NCI tumour cell line growth inhibition, 48 h
Active and inactive are the calls of the source. Rule as the data show it: active = GI50 up to about 1.1 µM and inactive = higher.
Task for the reader: assign each of the following compounds its reported GI50.

Record lookup: for SF-268, what GI50 belongs to `CCc1c(-c2ccccc2)[nH]c2ccccc2c1=O` ?
80.7 µM (inactive)

Another: `O=C(CN1CCOCC1)Nc1nc(-c2ccc(Cl)cc2)cs1`
25.1 µM (inactive)

Another: `CCOC(=O)c1cc(=O)oc2c1N(C)c1ncccc1N2`
> 100 µM (inactive)

Another: Brc1cccc(Nc2ncnc3sc4c(c23)CCC(Nc2cccc(Br)c2)C4)c1 (stereo unspecified)
> 100 µM (inactive)

Another: `COc1cc2nc(-c3cccs3)nc(N3C(c4ccc(O)cc4)=NNC(=O)c4ccccc43)c2cc1OC`
28.7 µM (inactive)

Another: CC(=O)c1ccccc1NC(=O)C(=O)C(C(=O)c1ccc2ccccc2c1)C1OC(=O)c2ccccc21 (stereo unspecified)
9.27 µM (inactive)
